# assayName: Clearance in Sprague-Dawley rat at 5 mg/kg, iv
# Assay type: ADME, organism-based
# Set-up: dose 5 mg/kg, route intravenous
# conditionParameters: in vivo
observedProperty: clearance (mL/min/kg)

mol	observedProperty	number
C=C[C@]1(C)C[C@@H](OC(=O)CSc2nnc(N)s2)[C@]2(C)[C@H](C)CC[C@]3(CCC(=O)[C@H]32)[C@@H](C)[C@@H]1O	clearance	5.41
C=C[C@]1(C)C[C@@H](OC(=O)CSc2nnc(NC(=O)CN3CCCCC3)s2)[C@]2(C)[C@H](C)CC[C@]3(CCC(=O)[C@H]32)[C@@H](C)[C@@H]1O	clearance	5.9

====

# Test system: Streptococcus agalactiae
# assayName: Antibacterial activity against Streptococcus agalactiae at 320 ug/ml after 24 hrs by Oxford cup assay
# Assay type: functional
# conditionParameters: read-out: IZ
Parameter: zone of inhibition at 320 µg/mL. Scope: all listed entries.

mol	readoutUnits	zone of inhibition at 320 µg/mL
C=C[C@]1(C)C[C@@H](OC(=O)CSc2nnc(NC(=O)c3cccc(N)c3)s2)[C@]2(C)[C@H](C)CC[C@]3(CCC(=O)[C@H]32)[C@@H](C)[C@@H]1O	mm	18.4
C=C[C@]1(C)C[C@@H](OC(=O)CSc2nnc(NC(=O)c3cccc(Cl)c3)s2)[C@]2(C)[C@H](C)CC[C@]3(CCC(=O)[C@H]32)[C@@H](C)[C@@H]1O	mm	13.5
C=C[C@]1(C)C[C@@H](OC(=O)CSc2nnc(NC(=O)c3ccccc3Cl)s2)[C@]2(C)[C@H](C)CC[C@]3(CCC(=O)[C@H]32)[C@@H](C)[C@@H]1O	mm	15.5
C=C[C@]1(C)C[C@@H](OC(=O)CSCCN(CC)CC)[C@]2(C)[C@H](C)CC[C@]3(CCC(=O)[C@H]32)[C@@H](C)[C@@H]1O	mm	16.1
C=C[C@]1(C)C[C@@H](OC(=O)CSc2nnc(NC(=O)CN3CCCC3)s2)[C@]2(C)[C@H](C)CC[C@]3(CCC(=O)[C@H]32)[C@@H](C)[C@@H]1O	mm	13.8
C=C[C@]1(C)C[C@@H](OC(=O)CSc2nnc(NC(=O)CN3CCN(C)CC3)s2)[C@]2(C)[C@H](C)CC[C@]3(CCC(=O)[C@H]32)[C@@H](C)[C@@H]1O	mm	12.6
C=C[C@]1(C)C[C@@H](OC(=O)CSc2nnc(N)s2)[C@]2(C)[C@H](C)CC[C@]3(CCC(=O)[C@H]32)[C@@H](C)[C@@H]1O	mm	17.3

====

# assayName: Oral bioavailability in duck
# Format: ADME, organism-based
# conditionParameters: anas platyrhynchos, in vivo
observedProperty: bioavailability (%)

mol	observedProperty	number
C=C[C@]1(C)C[C@@H](OC(=O)CSC(C)(C)CNC(=O)[C@H](N)C(C)C)[C@]2(C)[C@H](C)CC[C@]3(CCC(=O)[C@H]32)[C@@H](C)[C@@H]1O	bioavailability	36.7

====

# assayName: Elimination half life in Sprague-Dawley rat at 15 mg/kg, po
# Format: ADME, organism-based
# Parameters: dose 15 mg/kg, route oral
# conditionParameters: in vivo, read-out: beta t1/2 (converted)
Parameter: half-life. Scope: all listed entries.
observedProperty: half-life (h)

mol	number
C=C[C@]1(C)C[C@@H](OC(=O)CSc2nnc(N)s2)[C@]2(C)[C@H](C)CC[C@]3(CCC(=O)[C@H]32)[C@@H](C)[C@@H]1O	6.07
C=C[C@]1(C)C[C@@H](OC(=O)CSc2nnc(NC(=O)CN3CCCCC3)s2)[C@]2(C)[C@H](C)CC[C@]3(CCC(=O)[C@H]32)[C@@H](C)[C@@H]1O	5.98

====

Parameter: MRT. Scope: all listed entries.
# assayName: Mean residence time in Sprague-Dawley rat at 15 mg/kg, po
# Format: ADME, organism-based
# Parameters: dose 15 mg/kg, route oral
# conditionParameters: in vivo

mol	MRT
C=C[C@]1(C)C[C@@H](OC(=O)CSc2nnc(NC(=O)CN3CCCCC3)s2)[C@]2(C)[C@H](C)CC[C@]3(CCC(=O)[C@H]32)[C@@H](C)[C@@H]1O	7.91 h
C=C[C@]1(C)C[C@@H](OC(=O)CSc2nnc(N)s2)[C@]2(C)[C@H](C)CC[C@]3(CCC(=O)[C@H]32)[C@@H](C)[C@@H]1O	8.42 h

====

# assayName: Volume of distribution at steady state in Sprague-Dawley rat at 5 mg/kg, iv
# Format: ADME, organism-based
# Set-up: dose 5 mg/kg, route intravenous
# conditionParameters: in vivo, read-out: Vdss

mol	readoutUnits	Vd
C=C[C@]1(C)C[C@@H](OC(=O)CSc2nnc(N)s2)[C@]2(C)[C@H](C)CC[C@]3(CCC(=O)[C@H]32)[C@@H](C)[C@@H]1O	L/kg	0.92
C=C[C@]1(C)C[C@@H](OC(=O)CSc2nnc(NC(=O)CN3CCCCC3)s2)[C@]2(C)[C@H](C)CC[C@]3(CCC(=O)[C@H]32)[C@@H](C)[C@@H]1O	L/kg	1.02

====

Parameter: MIC. Scope: all listed entries.
# Tested on: Staphylococcus aureus
# assayName: Antibacterial activity against methicillin-resistant Staphylococcus aureus after 48 hrs by agar dilution method
# Type: functional
observedProperty: MIC (µg/mL)

compound	number
C=C[C@]1(C)C[C@@H](OC(=O)CSc2nnc(NC(=O)CN3CCCC3)s2)[C@]2(C)[C@H](C)CC[C@]3(CCC(=O)[C@H]32)[C@@H](C)[C@@H]1O	4
C=C[C@]1(C)C[C@@H](OC(=O)CSc2nnc(NC(=O)c3ccccc3N)s2)[C@]2(C)[C@H](C)CC[C@]3(CCC(=O)[C@H]32)[C@@H](C)[C@@H]1O	4
C=C[C@]1(C)C[C@@H](OC(=O)CSc2nnc(NC(=O)CN3CCOCC3)s2)[C@]2(C)[C@H](C)CC[C@]3(CCC(=O)[C@H]32)[C@@H](C)[C@@H]1O	1
C=C[C@]1(C)C[C@@H](OC(=O)CSc2nnc(NC(=O)c3ccc(N)cc3)s2)[C@]2(C)[C@H](C)CC[C@]3(CCC(=O)[C@H]32)[C@@H](C)[C@@H]1O	2
C=C[C@]1(C)C[C@@H](OC(=O)CSc2nnc(NC(=O)CN3CCCCC3)s2)[C@]2(C)[C@H](C)CC[C@]3(CCC(=O)[C@H]32)[C@@H](C)[C@@H]1O	0.5
C=C[C@]1(C)C[C@@H](OC(=O)CSCCN(CC)CC)[C@]2(C)[C@H](C)CC[C@]3(CCC(=O)[C@H]32)[C@@H](C)[C@@H]1O [TIAMULIN]	0.5
CC[C@]1(C)C[C@@H](OC(=O)CSc2nnc(N)[nH]2)[C@]2(C)[C@H](C)CC[C@]3(CCC(=O)[C@H]32)[C@@H](C)[C@@H]1O [AZAMULIN]	0.5

====

Parameter: zone of inhibition at 160 µg/mL. Scope: all listed entries.
# Test system: Staphylococcus epidermidis
# assayName: Antibacterial activity against methicillin-resistant Staphylococcus epidermidis at 160 ug/ml after 24 hrs by Oxford cup assay
# Format: functional
# conditionParameters: read-out: IZ

mol	targetUnderTest	zone of inhibition at 160 µg/mL / mm
C=C[C@]1(C)C[C@@H](OC(=O)CSc2nnc(NC(=O)c3ccccc3OC)s2)[C@]2(C)[C@H](C)CC[C@]3(CCC(=O)[C@H]32)[C@@H](C)[C@@H]1O	Staphylococcus epidermidis	11.9
CC[C@]1(C)C[C@@H](OC(=O)CSc2nnc(N)[nH]2)[C@]2(C)[C@H](C)CC[C@]3(CCC(=O)[C@H]32)[C@@H](C)[C@@H]1O	Staphylococcus epidermidis	15.4
C=C[C@]1(C)C[C@@H](OC(=O)CSc2nnc(NC(=O)CN3CCOCC3)s2)[C@]2(C)[C@H](C)CC[C@]3(CCC(=O)[C@H]32)[C@@H](C)[C@@H]1O	Staphylococcus epidermidis	0
C=C[C@]1(C)C[C@@H](OC(=O)CSc2nnc(NC(=O)CN3CCN(C)CC3)s2)[C@]2(C)[C@H](C)CC[C@]3(CCC(=O)[C@H]32)[C@@H](C)[C@@H]1O	Staphylococcus epidermidis	10.7
C=C[C@]1(C)C[C@@H](OC(=O)CSc2nnc(NC(=O)c3cccc(N)c3)s2)[C@]2(C)[C@H](C)CC[C@]3(CCC(=O)[C@H]32)[C@@H](C)[C@@H]1O	Staphylococcus epidermidis	16.1
C=C[C@]1(C)C[C@@H](OC(=O)CSCCN(CC)CC)[C@]2(C)[C@H](C)CC[C@]3(CCC(=O)[C@H]32)[C@@H](C)[C@@H]1O	Staphylococcus epidermidis	13.9
C=C[C@]1(C)C[C@@H](OC(=O)CSc2nnc(NC(=O)c3cccc(Cl)c3)s2)[C@]2(C)[C@H](C)CC[C@]3(CCC(=O)[C@H]32)[C@@H](C)[C@@H]1O	Staphylococcus epidermidis	12.9
C=C[C@]1(C)C[C@@H](OC(=O)CSc2nnc(NC(=O)c3cccc(OC)c3)s2)[C@]2(C)[C@H](C)CC[C@]3(CCC(=O)[C@H]32)[C@@H](C)[C@@H]1O	Staphylococcus epidermidis	12.3
C=C[C@]1(C)C[C@@H](OC(=O)CSc2nnc(N)s2)[C@]2(C)[C@H](C)CC[C@]3(CCC(=O)[C@H]32)[C@@H](C)[C@@H]1O	Staphylococcus epidermidis	12.8
C=C[C@]1(C)C[C@@H](OC(=O)CSc2nnc(NC(=O)c3ccc(Cl)cc3)s2)[C@]2(C)[C@H](C)CC[C@]3(CCC(=O)[C@H]32)[C@@H](C)[C@@H]1O	Staphylococcus epidermidis	11.3
C=C[C@]1(C)C[C@@H](OC(=O)CSc2nnc(NC(=O)c3ccccc3Cl)s2)[C@]2(C)[C@H](C)CC[C@]3(CCC(=O)[C@H]32)[C@@H](C)[C@@H]1O	Staphylococcus epidermidis	11.9
C=C[C@]1(C)C[C@@H](OC(=O)CSc2nnc(NC(=O)c3ccccc3N)s2)[C@]2(C)[C@H](C)CC[C@]3(CCC(=O)[C@H]32)[C@@H](C)[C@@H]1O	Staphylococcus epidermidis	12.2
C=C[C@]1(C)C[C@@H](OC(=O)CSc2nnc(NC(=O)CN(CC)CC)s2)[C@]2(C)[C@H](C)CC[C@]3(CCC(=O)[C@H]32)[C@@H](C)[C@@H]1O	Staphylococcus epidermidis	11.5
C=C[C@]1(C)C[C@@H](OC(=O)CSc2nnc(NC(=O)c3ccc(N)cc3)s2)[C@]2(C)[C@H](C)CC[C@]3(CCC(=O)[C@H]32)[C@@H](C)[C@@H]1O	Staphylococcus epidermidis	12.1
C=C[C@]1(C)C[C@@H](OC(=O)CSc2nnc(NC(=O)CN(C)C)s2)[C@]2(C)[C@H](C)CC[C@]3(CCC(=O)[C@H]32)[C@@H](C)[C@@H]1O	Staphylococcus epidermidis	14.3
C=C[C@]1(C)C[C@@H](OC(=O)CSc2nnc(NC(=O)CN3CCCC3)s2)[C@]2(C)[C@H](C)CC[C@]3(CCC(=O)[C@H]32)[C@@H](C)[C@@H]1O	Staphylococcus epidermidis	10.5
C=C[C@]1(C)C[C@@H](OC(=O)CSc2nnc(NC(=O)CN3CCCCC3)s2)[C@]2(C)[C@H](C)CC[C@]3(CCC(=O)[C@H]32)[C@@H](C)[C@@H]1O	Staphylococcus epidermidis	14.5
C=C[C@]1(C)C[C@@H](OC(=O)CSc2nnc(NC(=O)c3ccc(OC)cc3)s2)[C@]2(C)[C@H](C)CC[C@]3(CCC(=O)[C@H]32)[C@@H](C)[C@@H]1O	Staphylococcus epidermidis	9.52
